Target: NK2 receptor (Bos taurus, UniProt P05363)
Sequence (P05363 1-384): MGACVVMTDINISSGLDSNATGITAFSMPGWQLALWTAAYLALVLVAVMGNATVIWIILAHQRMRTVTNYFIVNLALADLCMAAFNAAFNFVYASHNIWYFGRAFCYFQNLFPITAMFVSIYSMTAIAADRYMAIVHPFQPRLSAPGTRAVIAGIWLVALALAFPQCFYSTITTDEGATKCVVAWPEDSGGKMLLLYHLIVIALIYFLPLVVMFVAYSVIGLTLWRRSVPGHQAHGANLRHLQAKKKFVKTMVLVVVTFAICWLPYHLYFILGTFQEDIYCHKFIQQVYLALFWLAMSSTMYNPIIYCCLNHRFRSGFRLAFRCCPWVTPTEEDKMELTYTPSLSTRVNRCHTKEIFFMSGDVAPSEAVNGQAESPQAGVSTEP
Non-standard residues stand in square brackets, D forms with d. Residues, ends and D or L forms follow the SMILES beside them. *: point of attachment. X2 = c1ccc2c(c1)CCN2*
observation.type: IC50 (µM)
# value in µM; strip the unit string

These solved cases illustrate the format of a correct answer.
CC(C)C[C@@H]1NC(=O)[C@@H](CC(C)C)NC(=O)[C@H](CC(=O)O)NC(=O)[C@H](Cc2c[nH]c3ccccc23)NC(=O)[C@@H](CC(=O)O)NC(=O)[C@@H](Cc2c[nH]c3ccccc23)NC1=O [Example 8, cyclo[-D-Asp-Trp-Asp-D-Leu-Leu-D-Trp-]] (cyclo(D[dL]L[dW][dD]W)); 6.4
CC(C)C[C@@H]1NC(=O)[C@@H](CC(C)C)NC(=O)[C@@H]2CCCN2C(=O)[C@H](Cc2c[nH]c3ccccc23)NC(=O)[C@@H](CC(=O)O)NC(=O)[C@@H](Cc2c[nH]c3ccccc23)NC1=O [Example 36, Cyclo[-D-Asp-Trp-Pro-D-Leu-Leu-D-Trp-]] (cyclo(L[dW][dD]WP[dL])); 1.1
CC(C)C[C@@H]1NC(=O)[C@@H](CC(C)C)NC(=O)[C@H](Cc2c[nH]c3ccccc23)NC(=O)[C@H](CC(=O)O)NC(=O)[C@@H](CC(=O)O)NC(=O)[C@@H](Cc2c[nH]c3ccccc23)NC1=O [Example 33, Cyclo[-D-Asp-Asp-Trp-D-Leu-Leu-D-Trp-]] (cyclo(DW[dL]L[dW][dD])); 0.35
CC(C)C[C@@H]1NC(=O)[C@@H](CC(C)C)NC(=O)[C@H](CC(=O)O)NC(=O)[C@H](CCC(=O)N2CCc3ccccc32)NC(=O)[C@@H](CC(=O)O)NC(=O)[C@@H](Cc2c[nH]c3ccccc23)NC1=O [Example 76] (cyclo(D[dL]L[dW][dD]E(X2))); 10
CC(C)C[C@@H]1NC(=O)[C@H](Cc2c[nH]c3ccccc23)NC(=O)[C@@H](CC(=O)O)NC(=O)[C@@H](Cc2c[nH]c3ccccc23)NC(=O)[C@H](CC(C)C)NC(=O)[C@@H](CC(C)C)NC1=O [Example 35, Cyclo[-D-Asp-Trp-Leu-D-Leu-Leu-D-Trp-]] (cyclo(L[dL]L[dW][dD]W)); 0.052

The reported value for CC(C)C[C@@H]1NC(=O)[C@@H](CC(C)C)NC(=O)[C@H](CCC(=O)O)NC(=O)[C@H](Cc2c[nH]c3ccccc23)NC(=O)[C@@H](CC(=O)O)NC(=O)[C@@H](Cc2c[nH]c3ccccc23)NC1=O [Example 34, Cyclo[-D-Asp-Trp-Glu-D-Leu-Leu-D-Trp-]] (cyclo(E[dL]L[dW][dD]W)) in terms of IC50 is 7.4
